Data credit: patent US9944654B2

The reader will find reported IC50 values listed item by item below.
Molecular target: E. coli DnaE (DNA polymerase III α-subunit from Escherichia coli) (Escherichia coli, UniProt P10443)
Construct: EcDnaE (E. coli DnaE residues 1-1160); 6xHis (N); made in house; host or cells: E. coli BL21(DE3)
Sequence (P10443 whole entry, the tested form may be a part): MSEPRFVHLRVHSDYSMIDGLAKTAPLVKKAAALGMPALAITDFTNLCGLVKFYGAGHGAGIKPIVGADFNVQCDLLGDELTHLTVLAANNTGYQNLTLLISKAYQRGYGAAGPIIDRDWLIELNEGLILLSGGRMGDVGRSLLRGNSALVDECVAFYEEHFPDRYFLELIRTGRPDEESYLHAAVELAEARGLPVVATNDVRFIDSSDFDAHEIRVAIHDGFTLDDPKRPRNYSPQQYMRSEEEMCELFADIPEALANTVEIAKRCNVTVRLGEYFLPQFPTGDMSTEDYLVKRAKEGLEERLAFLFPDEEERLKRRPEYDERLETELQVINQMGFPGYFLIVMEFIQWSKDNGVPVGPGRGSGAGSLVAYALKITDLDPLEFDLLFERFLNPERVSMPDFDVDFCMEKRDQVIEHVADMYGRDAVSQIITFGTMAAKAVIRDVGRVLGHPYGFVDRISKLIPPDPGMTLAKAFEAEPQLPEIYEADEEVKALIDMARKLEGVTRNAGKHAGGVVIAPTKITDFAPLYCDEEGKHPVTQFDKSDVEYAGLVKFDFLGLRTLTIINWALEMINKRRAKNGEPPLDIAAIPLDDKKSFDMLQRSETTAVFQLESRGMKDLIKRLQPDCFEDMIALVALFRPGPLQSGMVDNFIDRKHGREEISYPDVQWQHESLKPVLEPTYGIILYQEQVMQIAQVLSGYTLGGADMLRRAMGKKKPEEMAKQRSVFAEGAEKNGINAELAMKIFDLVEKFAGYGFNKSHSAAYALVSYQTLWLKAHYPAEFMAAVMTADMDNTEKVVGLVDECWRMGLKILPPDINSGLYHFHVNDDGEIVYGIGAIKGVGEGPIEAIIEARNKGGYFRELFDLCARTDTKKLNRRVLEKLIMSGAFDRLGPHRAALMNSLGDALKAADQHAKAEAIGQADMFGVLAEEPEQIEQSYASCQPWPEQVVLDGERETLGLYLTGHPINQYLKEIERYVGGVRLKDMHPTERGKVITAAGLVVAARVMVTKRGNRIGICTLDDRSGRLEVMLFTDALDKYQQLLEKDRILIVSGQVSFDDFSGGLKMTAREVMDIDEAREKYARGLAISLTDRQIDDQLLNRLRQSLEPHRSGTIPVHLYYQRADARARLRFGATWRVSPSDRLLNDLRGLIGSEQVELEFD
Test: In vitro DnaE single enzyme assay (E. coli)
Type: biochemical
Settings: read-out: E. coli DnaE IC50 (converted)
Description: Plasmids encoding EcDnaE (E. coli DnaE residues 1-1160) and SaDnaE (S. aureus DnaE residues 1-1065) with 6×His N-terminal tags, were overexpressed in BL21(DE3) and BL21-AI cells (Invitrogen), respectively. Cells were grown in LB media to an OD ˜0.45 pelleted and then resuspended in Minimal Media, as described in Pryor et al. (1997, Protein Expr Purif. 10:309-19), and inducer (0.4 mM IPTG or 0.2% arabinose) for 21 hours at 18° C. at 220 rpm. […]
Quick reminder: number only, in µM, skip the unit.

# test-smiles, IC50, µM
measured = [
    ("CO[C@H]1C[C@H]2C=C[C@H]3[C@H]4O[C@]2(/C(C)=C/[C@@H](C)[C@@H]([C@@H](C)OC(=O)NC2CC2)OC1=O)[C@@H]3[C@H](O)[C@@H](C)[C@H]4OC(=O)c1ccc[nH]1", 75.2),
]

Consider the record given below.
Qu. // IC50 lookup, key: CO[C@H]1C[C@H]2C=C[C@H]3[C@H]4O[C@]2(/C(C)=C/[C@@H](C)[C@@H]([C@@H](C)OC(=O)CCl)OC1=O)[C@@H]3[C@H](O)[C@@H](C)[C@H]4OC(=O)c1ccc[nH]1
Ans. 16.9
